Could you please report measured kon for the items listed next?
target: T1, human IL-21R extracellular domain His-Flag fusion protein (human, UniProt Q9HBE5 20-232); test: SPR, Ab captured on anti-human IgG
T1 construct: Biotinylated in the HTRF screen; also called hIL-21R-H/F; human IL-21R-H/F
T1 sequence (Q9HBE5 20-232): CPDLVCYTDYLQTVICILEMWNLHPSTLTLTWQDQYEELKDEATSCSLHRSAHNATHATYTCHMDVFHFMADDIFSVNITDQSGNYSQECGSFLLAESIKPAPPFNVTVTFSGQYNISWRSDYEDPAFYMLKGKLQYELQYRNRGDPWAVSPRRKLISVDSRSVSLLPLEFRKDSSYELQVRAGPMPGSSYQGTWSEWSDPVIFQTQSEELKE
Answer format: numeric, M⁻¹ s⁻¹ implied, no suffix.

Fill blank: measured kon of the binder parental 18A5 antibody (antibody, V domains shown, also called 18A5 IgG) VH: QVQLQESGPGLVKTSETLSLTCAVSGYSISSGYYWGWIRQPPGKGLEWIGSISHTGNTYYNPPLKSRVTISVDTSKNQFSLKLSSVTAADTAVYYCARGGGISRPEYWGKGTLVTVSS VL: SSELTQDPPVSVALGQTVTLTCQGDSLRTYYASWYQQKSGQAPILLLYGKHKRPSGIPDRFSGSTSGDTASLTITGAQAEDEADYYCNSRDSSGNPHVLFGGGTQLTVL is ____.
243000

Fill blank: measured kon of the binder AbO (antibody, human IgG1, V domains shown, CDR3 graft, residue limits derived as for m29; also called VHP/VL16; VHPTM/VL16) VH: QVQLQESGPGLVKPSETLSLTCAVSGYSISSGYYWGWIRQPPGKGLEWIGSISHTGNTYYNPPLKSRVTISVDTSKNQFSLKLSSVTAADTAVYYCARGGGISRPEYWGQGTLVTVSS VL: SSELTQDPAVSVALGQTVRITCQGDSLRTYYASWYQQKPGQAPVLVIYGKHKRPSGIPDRFSGSSSGNTASLTITGAQAEDEADYYCVTRSAKGNPHVLFGGGTQLTVL is ____.
241000

Fill blank: measured kon of the binder AbS (antibody, V domains shown, CDR3 graft, residue limits derived as for m29; also called VHP/VL6; VHPTM/VL6) VH: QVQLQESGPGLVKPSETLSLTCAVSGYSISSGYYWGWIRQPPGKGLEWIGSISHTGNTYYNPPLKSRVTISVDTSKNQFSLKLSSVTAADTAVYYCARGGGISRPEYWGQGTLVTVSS VL: SSELTQDPAVSVALGQTVRITCQGDSLRTYYASWYQQKPGQAPVLVIYGKHKRPSGIPDRFSGSSSGNTASLTITGAQAEDEADYYCMSRSIWGNPHVLFGGGTQLTVL is ____.
144000
